The measured values listed here are drawn from PubChem BioAssay (NCI).

Assay: NCI Yeast Anticancer Drug Screen. Data for the mlh1 rad18 strain (AID 175)
Details: S. cerevisiae mlh1 rad18 strain growth inhibition; at 50.0 µM; stronger effect = higher value
Protocol: Growth inhibition of yeast strains with defined genetic alterations is measured as a screen for potential anti-cancer activity. Selected strains with alterations in DNA damage repair or cell cycle control were exposed to compounds and growth inhibition was measured relative to vehicle treated controls. The strain used in this assay is mlh1 rad18
The panel holds about 79,000 compounds, 15% with a hit somewhere; the sample as a whole holds those more often.
Reported growth inhibition by item:

| MOLECULE | growth inhibition (%) |
| --- | --- |
| CC(C)OC(=O)C(C)(OC(=O)c1ccccc1)c1ccccc1 (stereo unspecified) | 14.3 |
| O=C(O)c1ccccc1N1C(=O)c2ccccc2C1=O | -1.55 |
| C=C(C)C1CC=C(/C=N/O)CC1 (stereo unspecified) | 2.8 |
| O=[N+]([O-])c1ccc(N/N=C/CCCCl)c([N+](=O)[O-])c1 | 9.05 |
| Cc1ccc(S(=O)(=O)C23N=NC(C)(C)C2C2CCC3C2)cc1 (stereo unspecified) | 3.75 |
| COc1ccc2c(c1)c(=O)c1ccccc1n2/C=C/C(=O)O | 2.25 |
